All figures here come from ChEMBL document CHEMBL6087474.

Test name: AUC in male ICR mouse at 10 mg/kg, ip measured after 24 hrs by LC-MS/MS analysis
Type: ADME, organism-based
Assay conditions: in vivo
Recorded metric: AUC at 24 h (ng·h/mL)
Lab book: enter the figure in ng·h/mL, no units written.

Req: // AUC at 24 h lookup, key: COc1ccc(CN2C3CC2CN(c2ccc(-c4cc(-c5cnn(C6CCN(CCCCCC#Cc7cccc8c7CN(C7CCC(=O)NC7=O)C8=O)CC6)c5)cn5ncc(C#N)c45)cn2)C3)cn1 (stereo unspecified)
Resp: 680

----------
Tested on: BaF3
Test name: PROTAC activity at CRBN/KIF5B-RET (unknown origin) expressed in mouse BaF3 cells assessed as induction of RET degradation at 100 nM measured after 6 hrs by Western blot analysis relative to control
Assay type: cell-based
Rule: Activity below 40% gives 1. Equal to or above 40% gives -1.

Solved entries (count: 5):
COc1ccc(CN2C3CC2CN(c2ccc(-c4cc(-c5cnn(C6CCN(CC#Cc7cccc8c7CN(C7CCC(=O)NC7=O)C8=O)CC6)c5)cn5ncc(C#N)c45)cn2)C3)cn1 (stereo not drawn) : 1
COc1ccc(CN2C3CC2CN(c2ccc(-c4cc(-c5cnn(CCCCCCC#Cc6cccc7c6CN(C6CCC(=O)NC6=O)C7=O)c5)cn5ncc(C#N)c45)cn2)C3)cn1 (stereo not drawn) : 1
COc1ccc(CN2C3CC2CN(c2ccc(-c4cc(-c5cnn(C6CCN(CCCCC#Cc7cccc8c7CN(C7CCC(=O)NC7=O)C8=O)CC6)c5)cn5ncc(C#N)c45)cn2)C3)cn1 (stereo not drawn) : -1
COc1ccc(CN2C3CC2CN(c2ccc(-c4cc(-c5cnn(C6CCN(CCCCCCCC#Cc7cccc8c7CN(C7CCC(=O)NC7=O)C8=O)CC6)c5)cn5ncc(C#N)c45)cn2)C3)cn1 (stereo not drawn) : 1
COc1ccc(CN2C3CC2CN(c2ccc(-c4cc(-c5cnn(C6CCN(CCCC#Cc7cccc8c7CN(C7CCC(=O)NC7=O)C8=O)CC6)c5)cn5ncc(C#N)c45)cn2)C3)cn1 (stereo not drawn) : 1

Okay, now this compound:
Req: is_below(Activity, 40%) for COc1ccc(CN2C3CC2CN(c2ccc(-c4cc(-c5cnn(C6CCN(CCCCCCC#Cc7cccc8c7CN(C7CCC(=O)NC7=O)C8=O)CC6)c5)cn5ncc(C#N)c45)cn2)C3)cn1 (stereo not drawn) ?
Resp: -1

----------
System: BaF3
Test name: Antiproliferative activity against mouse BaF3 cells stably expressing CCDC6-RET-V804M mutant incubated for 72 hrs by CCK-8 assay
Type: functional, cell-based
Assay conditions: BaF3, 72 h
We begin with a simple list: items and their reported IC50.
Lab book: enter the figure in µM, no units written.

Solved cases (2 shown):
COc1ccc(CN2C3CC2CN(c2ccc(-c4cc(-c5cnn(C6CCN(CCCCCC#Cc7cccc8c7CN(C7CCC(=O)N(C)C7=O)C8=O)CC6)c5)cn5ncc(C#N)c45)cn2)C3)cn1 (stereo not drawn) : 0.02
COc1ccc(CN2C3CC2CN(c2ccc(-c4cc(OCC(C)(C)O)cn5ncc(C#N)c45)cn2)C3)cn1 : 0.05

Req: // IC50 lookup, key: COc1ccc(CN2C3CC2CN(c2ccc(-c4cc(-c5cnn(C6CCN(CCCCCC#Cc7cccc8c7CN(C7CCC(=O)NC7=O)C8=O)CC6)c5)cn5ncc(C#N)c45)cn2)C3)cn1 (stereo not drawn)
Resp: 0.01
